Values were extracted from ChEMBL document CHEMBL4346687.

Assay: Cytotoxicity against human IOSE-80 cells assessed as reduction in cell viability after 24 hrs by MTT assay
Type: cell-based
Conditions: IOSE-80 cells
quantity kind: CC50 at 24 h (µM)
Write the number in µM without appending the unit.

Observe how each entry below is paired with its result.
O=c1[nH]cc(S(=O)(=O)Nc2cccc(-c3cn(-c4cccc(Cl)c4)nn3)c2)c(=O)[nH]1 | 18.9
O=c1[nH]cc(S(=O)(=O)Nc2cccc(-c3cn(-c4ccccc4Cl)nn3)c2)c(=O)[nH]1 | 17.9

Let's switch to this molecule now.
Problem: State the recorded CC50 at 24 h for this entry: `O=c1[nH]cc(S(=O)(=O)Nc2ccccc2-c2cn(-c3ccc(Cl)cc3)nn2)c(=O)[nH]1`
Solution: 16.5

###

Experiment: Cytotoxicity against human HPAEpic cells assessed as reduction in cell viability after 24 hrs by MTT assay
Format: cell-based
Conditions: HPAEpic cells
This listing pairs compounds with measured CC50 at 24 h.
Write the number in µM without appending the unit.

Observe how each entry below is paired with its result.
O=c1[nH]cc(S(=O)(=O)Nc2ccc(-c3cn(-c4ccccc4F)nn3)cc2)c(=O)[nH]1 | 32.6
Cc1ccc(-n2cc(-c3cccc(NS(=O)(=O)c4c[nH]c(=O)[nH]c4=O)c3)nn2)cc1 | 10.6
Cc1cccc(-n2cc(-c3ccccc3NS(=O)(=O)c3c[nH]c(=O)[nH]c3=O)nn2)c1 | 12.3

Problem: State the recorded CC50 at 24 h for this entry: `Cc1ccc(-n2cc(-c3ccccc3NS(=O)(=O)c3c[nH]c(=O)[nH]c3=O)nn2)cc1`
Solution: 7.03

Problem: Now the same for `O=c1[nH]cc(S(=O)(=O)Nc2cccc(-c3cn(-c4ccc(Cl)cc4)nn3)c2)c(=O)[nH]1`
Solution: 14

Problem: Now the same for `Cc1cccc(-n2cc(-c3cccc(NS(=O)(=O)c4c[nH]c(=O)[nH]c4=O)c3)nn2)c1`
Solution: 23.7

Problem: Now the same for `O=c1[nH]cc(S(=O)(=O)Nc2ccc(-c3cn(-c4ccccc4Cl)nn3)cc2)c(=O)[nH]1`
Solution: 17

Problem: Now the same for `O=c1[nH]cc(S(=O)(=O)Nc2ccccc2-c2cn(-c3ccc(Cl)cc3)nn2)c(=O)[nH]1`
Solution: 20.4

###

Tested on: HepG2
Experiment: cells
Conditions: Homo sapiens, HepG2, 24 h
Description: Antiproliferative activity against human HepG2 cells assessed as reduction in cell viability after 24 hrs by MTT assay
quantity kind: IC50 (µM)
Write the number in µM without appending the unit.

Observe how each entry below is paired with its result.
O=c1[nH]cc(S(=O)(=O)Nc2cccc(-c3cn(-c4ccccc4F)nn3)c2)c(=O)[nH]1 | 13.9
O=c1[nH]cc(S(=O)(=O)Nc2ccccc2-c2cn(-c3cccc(Cl)c3)nn2)c(=O)[nH]1 | 2.46
O=c1[nH]cc(S(=O)(=O)Nc2ccccc2-c2cn(-c3ccccc3F)nn2)c(=O)[nH]1 | 12.5
O=c1[nH]cc(S(=O)(=O)Nc2ccc(-c3cn(-c4ccccc4)nn3)cc2)c(=O)[nH]1 | 18

Let's switch to this compound now.
Problem: # query: IC50 | item `O=c1[nH]cc(S(=O)(=O)Nc2cccc(-c3cn(-c4ccccc4)nn3)c2)c(=O)[nH]1` | system: HepG2
Solution: 11.2

###

Assay: Cytotoxicity against human GES-1 cells assessed as reduction in cell viability after 24 hrs by MTT assay
Assay type: cell-based, GES1
Settings: GES-1 cells
quantity kind: CC50 at 24 h

O=c1[nH]cc(S(=O)(=O)Nc2ccc(-c3cn(-c4ccccc4F)nn3)cc2)c(=O)[nH]1 | > 100 µM
O=c1[nH]cc(S(=O)(=O)Nc2ccccc2-c2cn(-c3cccc(Cl)c3)nn2)c(=O)[nH]1 | > 100 µM

Let's switch to this compound now.
Problem: State the recorded CC50 at 24 h for this entry: `O=c1[nH]cc(S(=O)(=O)Nc2ccc(-c3cn(-c4ccc(F)cc4)nn3)cc2)c(=O)[nH]1`
Solution: > 100 µM
